Reported Efficacy values for the following molecules.
biological target: Thrombopoietin receptor (Homo sapiens) (UniProt P40238); assay: Agonist activity at human thrombopoietin receptor expressed in mouse Ba/F3 cells in presence of 1 mM Zinc by kinase activation based reporter gene assay relative to 30 ng/mL thrombopoietin; assay type: functional, cell-based; conditions: BaF3
Sequence (P40238 whole entry): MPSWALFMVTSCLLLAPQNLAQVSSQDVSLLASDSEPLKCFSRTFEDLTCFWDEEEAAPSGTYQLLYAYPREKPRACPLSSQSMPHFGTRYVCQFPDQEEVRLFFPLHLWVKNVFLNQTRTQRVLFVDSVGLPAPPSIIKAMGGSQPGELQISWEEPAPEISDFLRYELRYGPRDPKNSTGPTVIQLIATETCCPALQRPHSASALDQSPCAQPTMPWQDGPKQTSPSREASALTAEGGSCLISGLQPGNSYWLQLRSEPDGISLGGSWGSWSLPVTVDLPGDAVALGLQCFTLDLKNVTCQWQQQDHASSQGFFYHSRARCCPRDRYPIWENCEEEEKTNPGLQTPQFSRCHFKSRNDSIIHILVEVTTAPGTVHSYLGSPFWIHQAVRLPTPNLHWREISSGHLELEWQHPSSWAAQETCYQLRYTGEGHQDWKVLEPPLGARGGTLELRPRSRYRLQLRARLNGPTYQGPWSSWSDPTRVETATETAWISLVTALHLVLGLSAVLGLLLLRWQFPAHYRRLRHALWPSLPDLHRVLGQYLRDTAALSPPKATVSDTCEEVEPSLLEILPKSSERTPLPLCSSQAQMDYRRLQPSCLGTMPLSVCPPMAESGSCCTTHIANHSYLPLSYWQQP
recordedMetric: Efficacy

[[record]]
chemicalsmiles = "CCCCc1ccc(-c2ccc3c4c([nH]c3c2)-c2ccc(C(=O)O)cc2CCC4)cc1"
measuredtarget = "Thrombopoietin receptor (Homo sapiens) (UniProt P40238)"
result = "71%"

[[record]]
chemicalsmiles = "CCCCc1ccc(-c2ccc3c4c([nH]c3c2F)-c2ccc(NC(N)=O)cc2C4)cc1"
measuredtarget = "Thrombopoietin receptor (Homo sapiens) (UniProt P40238)"
result = "128%"

[[record]]
chemicalsmiles = "CCCCc1ccc(-c2ccc3c4c([nH]c3c2F)-c2ccc(NS(C)(=O)=O)cc2C4)cc1"
measuredtarget = "Thrombopoietin receptor (Homo sapiens) (UniProt P40238)"
result = "95%"

[[record]]
chemicalsmiles = "CCCCc1ccc(-c2ccc3c4c([nH]c3c2F)-c2ccc(NC(=O)CO)cc2C4)cc1"
measuredtarget = "Thrombopoietin receptor (Homo sapiens) (UniProt P40238)"
result = "98%"

[[record]]
chemicalsmiles = "CCCCc1ccc(-c2ccc3c4c([nH]c3c2F)-c2cc(N)c(C(=O)O)cc2C4)cc1"
measuredtarget = "Thrombopoietin receptor (Homo sapiens) (UniProt P40238)"
result = "70%"

